Plant response rating, Cupgrass, Woolly: recorded values
test system: woolly cupgrass (Eriochloa villosa); experiment: Test B pre-/postemergence plant response; assay type: in vivo; conditions: Postemergence, 125 g ai/ha; scale 0 to 100 (0 no effect, 100 complete control)
assay_readout: Plant response rating, Cupgrass, Woolly

Cc1ccc(F)cc1-n1c(-c2cccc(Cl)c2)ncc(C(=O)C2=C(O)CCCC2=O)c1=O [Compound 157] = 98
CCCn1c(-c2ccc(F)cc2)ncc(C(=O)C2=C(O)CCCC2=O)c1=O [Compound 102] = 75
CCCCn1c(-c2cc(F)cc(F)c2)ncc(C(=O)C2=C(O)CCCC2=O)c1=O [Compound 121] = 100
CCCn1c(-c2cccc(Br)c2)ncc(C(=O)C2=C(O)CCCC2=O)c1=O [Compound 141] = 65
CCc1ccc(-n2c(-c3ccccc3)ncc(C(=O)C3=C(O)CCCC3=O)c2=O)cc1 [Compound 219] = 95
O=C(C1=C(O)C2CCC(C2)C1=O)c1cnc(-c2ccsc2)n(CC2CCCO2)c1=O (stereo not drawn) [Compound 229] = 80
